Assayed Target: Neuronal acetylcholine receptor; alpha3/beta4 (Homo sapiens, UniProt P30926+P32297)
Sequence (P30926 whole entry): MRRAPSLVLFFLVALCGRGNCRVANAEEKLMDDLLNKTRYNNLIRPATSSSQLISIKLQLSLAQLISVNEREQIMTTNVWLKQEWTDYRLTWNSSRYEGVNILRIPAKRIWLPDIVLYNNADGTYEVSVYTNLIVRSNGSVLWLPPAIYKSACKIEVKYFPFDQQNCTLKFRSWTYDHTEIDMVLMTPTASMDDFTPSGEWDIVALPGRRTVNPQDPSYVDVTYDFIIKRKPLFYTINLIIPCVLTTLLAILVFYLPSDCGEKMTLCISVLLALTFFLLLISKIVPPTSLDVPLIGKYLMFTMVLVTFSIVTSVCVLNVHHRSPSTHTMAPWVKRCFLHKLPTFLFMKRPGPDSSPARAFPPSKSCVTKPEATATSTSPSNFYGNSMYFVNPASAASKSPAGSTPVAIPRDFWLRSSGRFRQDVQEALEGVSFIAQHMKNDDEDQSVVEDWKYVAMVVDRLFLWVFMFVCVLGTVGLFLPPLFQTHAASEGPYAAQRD
Sequence (P32297 whole entry): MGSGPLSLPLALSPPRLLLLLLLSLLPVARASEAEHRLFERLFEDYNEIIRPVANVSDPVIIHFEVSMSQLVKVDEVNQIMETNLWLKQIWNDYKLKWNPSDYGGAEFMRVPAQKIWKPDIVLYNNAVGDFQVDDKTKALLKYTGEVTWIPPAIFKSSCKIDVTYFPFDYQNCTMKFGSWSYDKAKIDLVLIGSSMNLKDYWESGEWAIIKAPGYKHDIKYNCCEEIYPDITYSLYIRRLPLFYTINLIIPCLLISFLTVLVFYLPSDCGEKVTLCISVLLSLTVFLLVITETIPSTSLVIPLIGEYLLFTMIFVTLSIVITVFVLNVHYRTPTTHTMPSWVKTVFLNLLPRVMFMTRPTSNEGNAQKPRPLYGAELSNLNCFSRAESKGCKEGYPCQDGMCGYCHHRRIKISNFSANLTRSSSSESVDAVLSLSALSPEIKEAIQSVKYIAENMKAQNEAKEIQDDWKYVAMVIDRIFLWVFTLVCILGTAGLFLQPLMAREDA
Assay Summary: Antagonistic activity against Nicotinic acetylcholine receptor alpha3-beta4
Assay type: functional
pIC50: −log10 of the molar value.
Quantity Measured: pIC50

pIC50 for O=C(N[C@H]1CN2CCC1CC2)c1ccc(Cl)cc1 is ≤ 4.22

###

Assayed Target: Serotonin 3 (5-HT3) receptor (Rattus norvegicus, UniProt P35563+Q9JJ16)
Sequence (P35563 whole entry): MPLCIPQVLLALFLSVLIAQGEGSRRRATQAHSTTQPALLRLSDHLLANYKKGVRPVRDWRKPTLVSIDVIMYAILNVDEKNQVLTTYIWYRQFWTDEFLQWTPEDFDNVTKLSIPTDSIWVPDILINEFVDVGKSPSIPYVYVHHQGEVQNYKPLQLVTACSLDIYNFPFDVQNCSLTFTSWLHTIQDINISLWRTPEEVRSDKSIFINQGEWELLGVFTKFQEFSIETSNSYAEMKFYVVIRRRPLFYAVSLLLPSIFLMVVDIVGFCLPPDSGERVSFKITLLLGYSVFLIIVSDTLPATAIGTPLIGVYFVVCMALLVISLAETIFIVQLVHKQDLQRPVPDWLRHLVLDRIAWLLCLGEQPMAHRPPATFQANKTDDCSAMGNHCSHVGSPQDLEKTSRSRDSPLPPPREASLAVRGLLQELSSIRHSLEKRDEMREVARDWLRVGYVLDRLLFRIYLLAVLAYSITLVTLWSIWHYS
Sequence (Q9JJ16 whole entry): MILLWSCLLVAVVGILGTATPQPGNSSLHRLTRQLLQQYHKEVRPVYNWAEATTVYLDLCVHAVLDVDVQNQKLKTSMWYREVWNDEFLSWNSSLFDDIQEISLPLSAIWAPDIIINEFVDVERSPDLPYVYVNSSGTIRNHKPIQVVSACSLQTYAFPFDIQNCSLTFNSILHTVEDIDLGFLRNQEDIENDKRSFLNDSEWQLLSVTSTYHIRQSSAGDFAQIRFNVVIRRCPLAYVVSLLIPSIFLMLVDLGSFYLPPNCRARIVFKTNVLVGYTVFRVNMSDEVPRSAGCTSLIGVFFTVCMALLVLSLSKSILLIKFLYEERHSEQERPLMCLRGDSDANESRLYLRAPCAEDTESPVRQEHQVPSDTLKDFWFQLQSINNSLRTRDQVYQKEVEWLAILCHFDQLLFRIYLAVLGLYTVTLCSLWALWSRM
Assay Summary: Inhibition of [3H]GR-65630 binding to 5-hydroxytryptamine 3 receptor from rat brain homogenates
Quantity Measured: Ki (nM)
Numbers only; they are read as nM.

// compound O=C(N[C@H]1CN2CCC1CC2)c1ccc(Cl)cc1 , assay Serotonin 3 (5-HT3) receptor (Rattus norvegicus, UniProt P35563+Q9JJ16), Ki value: 1660
